- target: Human ST2-fc (human) (UniProt Q01638)
- test-summary: competition ELISA, coated ST2-fc, competitor IL33-his
readout: IC50 (µg/mL)
Express it in µg/mL; write the number only.

// IC50 lookup, binder = 5888-153-H3L1 (antibody, human IgG4 S228P, kappa, V domains shown, Humanized antibody) VH: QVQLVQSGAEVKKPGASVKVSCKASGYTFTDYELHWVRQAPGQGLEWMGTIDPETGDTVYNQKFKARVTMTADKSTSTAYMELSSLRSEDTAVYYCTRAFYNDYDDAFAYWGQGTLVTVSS VL: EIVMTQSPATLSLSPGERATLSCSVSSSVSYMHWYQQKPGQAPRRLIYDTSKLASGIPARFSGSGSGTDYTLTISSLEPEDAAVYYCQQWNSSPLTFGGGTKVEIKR , result: 0.553

Next:
Input 5887-537H3+L1 (antibody, V domains shown, murine antibody; also called 5887-537H3H+L1) VH: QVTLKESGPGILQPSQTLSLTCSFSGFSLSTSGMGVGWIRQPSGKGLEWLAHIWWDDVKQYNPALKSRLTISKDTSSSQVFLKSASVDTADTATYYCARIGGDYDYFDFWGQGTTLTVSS VL: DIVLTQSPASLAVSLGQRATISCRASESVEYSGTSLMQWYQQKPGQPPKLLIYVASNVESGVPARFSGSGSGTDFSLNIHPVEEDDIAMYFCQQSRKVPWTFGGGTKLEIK . Output IC50: 0.99

The reported measurements were obtained from patent US12624112.
